- target desc: human ether-à-go-go-related gene (hERG) potassium channel (human, UniProt Q12809);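 note: peak tail current of the secondary pulse compared with the same well before compound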
- Sequence (Q12809 whole entry, looked up): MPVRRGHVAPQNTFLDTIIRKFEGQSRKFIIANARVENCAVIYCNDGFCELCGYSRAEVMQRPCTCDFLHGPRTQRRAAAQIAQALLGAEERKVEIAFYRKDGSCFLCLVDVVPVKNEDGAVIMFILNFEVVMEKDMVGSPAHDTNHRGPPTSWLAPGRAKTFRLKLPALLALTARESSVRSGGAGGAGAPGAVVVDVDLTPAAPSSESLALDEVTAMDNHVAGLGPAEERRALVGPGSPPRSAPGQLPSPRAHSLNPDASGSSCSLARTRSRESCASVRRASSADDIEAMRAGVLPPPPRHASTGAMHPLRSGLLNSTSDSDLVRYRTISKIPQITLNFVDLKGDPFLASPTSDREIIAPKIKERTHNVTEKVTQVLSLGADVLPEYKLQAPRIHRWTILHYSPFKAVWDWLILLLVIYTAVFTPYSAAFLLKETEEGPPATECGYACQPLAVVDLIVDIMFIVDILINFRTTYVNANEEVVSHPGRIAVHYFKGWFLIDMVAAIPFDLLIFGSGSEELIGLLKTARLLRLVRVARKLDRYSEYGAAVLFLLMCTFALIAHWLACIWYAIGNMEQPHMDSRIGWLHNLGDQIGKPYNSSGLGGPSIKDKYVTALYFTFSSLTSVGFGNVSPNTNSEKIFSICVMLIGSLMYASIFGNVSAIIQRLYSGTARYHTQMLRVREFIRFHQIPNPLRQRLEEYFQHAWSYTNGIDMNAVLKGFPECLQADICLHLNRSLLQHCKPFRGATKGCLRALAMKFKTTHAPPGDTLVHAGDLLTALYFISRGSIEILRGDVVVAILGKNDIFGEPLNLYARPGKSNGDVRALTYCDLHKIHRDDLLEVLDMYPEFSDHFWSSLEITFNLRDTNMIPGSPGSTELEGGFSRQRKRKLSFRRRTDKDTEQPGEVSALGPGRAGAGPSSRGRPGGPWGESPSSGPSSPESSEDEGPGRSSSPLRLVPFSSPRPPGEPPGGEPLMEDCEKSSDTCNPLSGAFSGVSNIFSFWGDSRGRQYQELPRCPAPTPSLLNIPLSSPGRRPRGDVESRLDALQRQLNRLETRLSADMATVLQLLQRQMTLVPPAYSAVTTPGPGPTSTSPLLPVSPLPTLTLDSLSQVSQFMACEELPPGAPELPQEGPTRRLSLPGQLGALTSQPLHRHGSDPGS
- assay procedure: primary screen, population patch clamp on CHO cells stably expressing hERG; higher = less effect of the substance
About 14,000 (4.5%) of roughly 310,000 compounds showed an effect of 50% or more. The effect is printed as a negative number. For the sample, strong results were picked, then their nearest neighbours and some compounds at random.
metric name: hERG current change (%, negative = inhibition) at 10uM (%)
Give the value, in units of %, as a plain number.

Value of measured hERG current change (%, negative = inhibition) at 10uM for the entry `CCn1cc(C(=O)N2CCN(c3ccccc3OC)CC2)c2cc(OC)c(OC)cc2c1=O` : -1.96

Consider `Cc1cc(OCC(=O)NNC(=O)CCc2ccccc2)ccc1Br` . Its measured hERG current change (%, negative = inhibition) at 10uM is 17.6

# hERG current change (%, negative = inhibition) at 10uM of `Cc1cc(NC(=S)N(CCN2CCOCC2)Cc2ccccc2F)ccc1Cl` = 24.1

Value of measured hERG current change (%, negative = inhibition) at 10uM for the entry `CCn1cc(C(=O)N2CCN(c3cccc(Cl)c3)CC2)c2cc(OC)c(OC)cc2c1=O` : -64.8

// `CCn1cc(C(=O)N2CCN(c3ccc(OC)cc3)CC2)c2cc(OC)c(OC)cc2c1=O` : hERG current change (%, negative = inhibition) at 10uM value = -33.8

Lab note: measured hERG current change (%, negative = inhibition) at 10uM of `NC(=O)CSc1nnc(NC(=O)c2cccc(S(=O)(=O)N3CCCCC3)c2)s1` was 25.3

Consider `COc1ccc(C(=O)N2CCN(c3cccc(Cl)c3)CC2)c(OC)c1` . Its measured hERG current change (%, negative = inhibition) at 10uM is -44.6

In plain terms, `COc1cc2c(C(=O)N3CCN(c4cccc(Cl)c4)CC3)cn(C)c(=O)c2cc1OC` has a documented hERG current change (%, negative = inhibition) at 10uM of -53.1

Short answer for `CCn1cc(C(=O)N2CCN(c3ccccn3)CC2)c2cc(OC)c(OC)cc2c1=O` : hERG current change (%, negative = inhibition) at 10uM was -14.4

---

Provide the recorded hERG current change (%, negative = inhibition) at 10uM for the entries that follow.
- target desc: human ether-à-go-go-related gene (hERG) potassium channel (human);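 note: peak tail current of the secondary pulse compared with the same well before compound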
- assay procedure: primary screen, population patch clamp on CHO cells stably expressing hERG; higher = less effect of the substance
Hit rate of the full screen: of about 310,000 compounds, about 14,000 (4.5%) showed an effect of 50% or more. Effects have a minus sign here. This is one part of a sample in which strong results are shown more often than they occur.
Write it as a number; the unit % goes unstated.

Field hERG current change (%, negative = inhibition) at 10uM (entry O=c1cccc2n1CC1CC2CN(c2ncnc3c2cnn3-c2ccccc2)C1 (stereo not drawn) ) reads -30

So for `O=C(N/N=C/c1ccc[nH]1)c1ccc(O)cc1` , the logged hERG current change (%, negative = inhibition) at 10uM turned out to be 19.6

Value of measured hERG current change (%, negative = inhibition) at 10uM for the entry CCOc1ccc(NC(=O)CN(C)C(=O)CC2OC(=O)c3ccccc32)cc1OCC (stereo not drawn) : 0.75

# hERG current change (%, negative = inhibition) at 10uM of `Cc1cc(=O)[nH]c(SCC(=O)Nc2ccc(S(=O)(=O)N3CCCCC3)cc2)n1` = -6.37

Record `Cc1cc(C)c(C)c(S(=O)(=O)N2CCN(CC(=O)Nc3ccc([N+](=O)[O-])cc3)CC2)c1C` , field hERG current change (%, negative = inhibition) at 10uM: 15.4

Measured hERG current change (%, negative = inhibition) at 10uM of `O=C(CSc1ncccn1)Nc1ccc(S(=O)(=O)N2CCCCC2)cc1` : -12.9

Item: `C/C=C(\C)C(=O)NCCN1C2=NC[C@@H](C)N2C[C@H]1Cc1ccc(O)cc1` | hERG current change (%, negative = inhibition) at 10uM: 12.9

So, O=c1cccc2n1CC1CC2CN(c2ncnc3c2cnn3-c2ccc(Cl)cc2)C1 (stereo not drawn) ? Its hERG current change (%, negative = inhibition) at 10uM was -62.1

Please fill in: hERG current change (%, negative = inhibition) at 10uM reported for C/C(N)=C(/C#N)C(=O)COC(=O)C1CCC(C(C)(C)C)CC1 (stereo not drawn) = -7.3

---

Provide the reported hERG current change (%, negative = inhibition) at 10uM of each item.
- target desc: human ether-à-go-go-related gene (hERG) potassium channel (human);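 note: peak tail current of the secondary pulse compared with the same well before compound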
- assay procedure: primary screen, population patch clamp on CHO cells stably expressing hERG; higher = less effect of the substance
Out of some 310,000 compounds screened, about 14,000 (4.5%) showed an effect of 50% or more. The effect is printed as a negative number. What follows is part of a selection rich in strong results, with near analogues and random picks from the rest.
Give just the numeric value; % need not be written.

Reported hERG current change (%, negative = inhibition) at 10uM ( `CSc1ccc(C(=S)N2CCN(Cc3ccccc3)CC2)cc1` ) = -50.4

Quick note, hERG current change (%, negative = inhibition) at 10uM for `CCN(CC)Cc1cc(C(C)=O)ccc1OCC(C)C` landed at -31.5

Sure, the documented hERG current change (%, negative = inhibition) at 10uM for `COc1ccc([N+](=O)[O-])cc1NC1CCN(C(=O)c2cccs2)CC1` is -85.7

Looking up O=C(NC1CCCc2ccccc21)c1ccc([N+](=O)[O-])cc1 (stereo not drawn) , I found its hERG current change (%, negative = inhibition) at 10uM recorded as -53.4

// field: hERG current change (%, negative = inhibition) at 10uM; key: `Cn1c(=O)cc(OCC(=O)N2CCCc3ccccc32)c2ccccc21` ; value = -3.03

Field hERG current change (%, negative = inhibition) at 10uM (entry `c1ccc2sc(NC3=NCN(Cc4ccc5c(c4)OCO5)CN3)nc2c1` ) reads 4.28

Reported hERG current change (%, negative = inhibition) at 10uM for CC1CCC[C@H](O)CCCCCc2cc(O)cc(O)c2C(=O)O1 (stereo partly drawn) was 5.64

Lab note: measured hERG current change (%, negative = inhibition) at 10uM of `CCN(Cc1ccccc1)C(=O)CCc1nc(-c2ccc(C)cc2)no1` was -12.1

Just so you know, measured hERG current change (%, negative = inhibition) at 10uM for CCNCCC(CCC(C)C)c1ccc2c(c1)OCO2 (stereo not drawn) came out at -72

Lab note: measured hERG current change (%, negative = inhibition) at 10uM of `COc1ccc(-c2noc(CCC(=O)N3CCN(Cc4ccccc4)CC3)n2)cc1` was -32.8

Measured hERG current change (%, negative = inhibition) at 10uM of CC(C)[C@H](NC(=O)NC1CCCc2ccccc21)C(=O)O (stereo partly drawn) : -68.2

// sample CCc1ccccc1NC(=O)NC(C)c1ccc2c(c1)OCO2 (stereo not drawn) , its hERG current change (%, negative = inhibition) at 10uM was 14

Value of measured hERG current change (%, negative = inhibition) at 10uM for the entry `COc1ccc(C(=O)NCC(=O)OCC(=O)NCCC2=CCCCC2)cc1` : -12.7

What the record says about COc1ccc(-c2noc(C3CCCN(C(=O)c4ccc(F)cc4)C3)n2)cc1 (stereo not drawn) : hERG current change (%, negative = inhibition) at 10uM is -35.3

Reported hERG current change (%, negative = inhibition) at 10uM ( Cc1cccc(NC(=O)c2ccc(NCC3CCCO3)c([N+](=O)[O-])c2)n1 (stereo not drawn) ) = 14.2

Short answer for Cl.OCCN(Cc1ccccc1)CC(O)COc1ccc(-c2ccccc2)cc1 (stereo not drawn) : hERG current change (%, negative = inhibition) at 10uM was -28.3

Recorded result, O=C(c1ccc(F)cc1)N1CCCC(c2nc(-c3cccs3)no2)C1 (stereo not drawn) , hERG current change (%, negative = inhibition) at 10uM: -18.5

So for `COc1ccc(C(=O)/C=C/N(C)C)cc1OC` , the logged hERG current change (%, negative = inhibition) at 10uM turned out to be 7.92

Per the records, this compound ( `COc1ccc(C(=O)N2CCN(C(=O)Cc3ccccc3)CC2)cc1.O=C(O)C(=O)O` ) has hERG current change (%, negative = inhibition) at 10uM equal to 0.269

`COc1cc(OC)c(C(=O)Nc2ccncc2)cc1OC` yielded hERG current change (%, negative = inhibition) at 10uM of 7.83

// COC(=O)[C@@H](NC(=O)NC1CCCc2ccccc21)C(C)C (stereo partly drawn) : hERG current change (%, negative = inhibition) at 10uM value = 9.47

// hERG current change (%, negative = inhibition) at 10uM lookup, compound = `Cc1cccc(NC(=O)c2ccc([N+](=O)[O-])cc2Cl)n1` , result: -22.8

Query `N#C/C(=C\N1CCN(Cc2ccc3c(c2)OCO3)CC1)c1nc2ccccc2s1` yields hERG current change (%, negative = inhibition) at 10uM of -52.8

# hERG current change (%, negative = inhibition) at 10uM of `Cl.N#C/C=C/N1CCN(Cc2ccc3c(c2)OCO3)CC1` = 1.29

Input `O=C(CN1c2cccc3cccc(c23)S1(=O)=O)Nc1ccccc1` . Output hERG current change (%, negative = inhibition) at 10uM: 24.3

response.value for O=C(NCc1cccs1)C1CCCN1C(=O)Nc1ccccc1 (stereo not drawn) (field: hERG current change (%, negative = inhibition) at 10uM) = 21

So, `O=C(Cc1ccccc1)N1CCN(C(=O)c2ccc([N+](=O)[O-])cc2)CC1` ? Its hERG current change (%, negative = inhibition) at 10uM was -51

Record `COc1cc(CN2CCC(n3nccc3NC(=O)c3ccc4c(c3)OCO4)CC2)ccc1O` , field hERG current change (%, negative = inhibition) at 10uM: -6.7

Recorded hERG current change (%, negative = inhibition) at 10uM (compound `CCOc1cccc(CN2CCC(n3nccc3NC(=O)c3ccc4c(c3)OCO4)CC2)c1` ): -43.2

Record summary for N#Cc1ccc(C(=O)NC2CCCc3ccccc32)cc1 (stereo not drawn) : reported hERG current change (%, negative = inhibition) at 10uM = -52.8

What the record says about `Cc1ccc(C(=S)N2CCN(Cc3ccccc3)CC2)cc1` : hERG current change (%, negative = inhibition) at 10uM is -42.9

Per the record, `CCOC(=O)N1CCN(/C=C(\C#N)c2nc3ccccc3s2)CC1` has hERG current change (%, negative = inhibition) at 10uM of -58.5

According to the records, this compound `CCN(Cc1ccccc1)C(=O)CCc1nc(CN2CCN(C(=O)c3ccc([N+](=O)[O-])cc3)CC2)no1` displays hERG current change (%, negative = inhibition) at 10uM of -64.2

Value of hERG current change (%, negative = inhibition) at 10uM reported for the compound `COCCCNS(=O)(=O)c1ccc2c(c1)OCCO2` is 6.53

Lab book: hERG current change (%, negative = inhibition) at 10uM of `Cc1occc1C(=O)N1CCN(S(C)(=O)=O)CC1` noted as 7.58

Cl.Fc1ccccc1CNCCC(Cc1ccccc1)c1ccc2c(c1)OCO2 (stereo not drawn) yielded hERG current change (%, negative = inhibition) at 10uM of -50.6

Given item COc1ccc(-c2noc(C3CCCN(C(=O)c4cccs4)C3)n2)cc1 (stereo not drawn) , the value recorded as its hERG current change (%, negative = inhibition) at 10uM is -21.1

hERG current change (%, negative = inhibition) at 10uM for `O=C(COC(=O)c1ccccc1F)NC(=O)NC1CCCC1` is 1.24

What the record says about CCC(C)NC(=O)COc1ccccc1[N+](=O)[O-] (stereo not drawn) : hERG current change (%, negative = inhibition) at 10uM is 16

Data point: `COc1ccc(CN2CCC(n3nccc3NC(=O)c3ccc4c(c3)OCO4)CC2)cc1C` ; hERG current change (%, negative = inhibition) at 10uM = -80.6

Summary for this compound, COCCCNCCC(CCC(C)C)c1ccc2c(c1)OCO2.Cl (stereo not drawn) : hERG current change (%, negative = inhibition) at 10uM is -80.2

Record `Fc1cccc(CCNCc2ccccn2)c1` , field hERG current change (%, negative = inhibition) at 10uM: -6.71
